Target: MRP3 (Rattus norvegicus)
Construct: intestinal segments including duodenum, jejunum, ileum, and colon from anesthetized rats were immediately removed by surgery; from tissue; host or cells: stripped rat intestine (jejunum and ileum in validation; jejunum for the emodin studies)
Test: Influence of emodin on MRP3 function: teniposide bidirectional transport in the presence of emodin (Ussing chamber)
Type: in vitro ADME
Conditions: rat, pH 6.5, with emodin 370 μM on mucosal side, teniposide 60 μM, rat jejunum, emodin 370 μM on mucosal side; read-out: Papp M-S in the presence of emodin
reportedEndpoint: Papp at 60 μM (nm/s)
API: value field is a number in nm/s; no unit string.

Query: Find the recorded Papp at 60 μM belonging to COc1cc([C@@H]2c3cc4c(cc3[C@@H](O[C@@H]3O[C@@H]5CO[C@@H](c6cccs6)O[C@H]5[C@H](O)[C@H]3O)[C@H]3COC(=O)[C@H]23)OCO4)cc(OC)c1O [Teniposide] and report it.
Reply: 525

----------
System: P-gp
Experiment: in vitro
Details: rat, pH 6.5, with verapamil 440 μM, mucosal side, Papp M-S, with inhibitor, rat colon, with verapamil 440 μM on mucosal side
reportedEndpoint: Papp
Respond with a number, then the unit of measure.

Query: Reported Papp for P-gp, given `C[C@H]1O[C@@H](O[C@H]2[C@@H](O)C[C@H](O[C@H]3[C@@H](O)C[C@H](O[C@H]4CC[C@@]5(C)[C@H](CC[C@@H]6[C@@H]5C[C@@H](O)[C@]5(C)[C@@H](C7=CC(=O)OC7)CC[C@]65O)C4)O[C@@H]3C)O[C@@H]2C)C[C@H](O)[C@@H]1O` ?
Reply: 189 ×10⁻⁶ cm/s

----------
Target: UniProt:Q63120
Assay: Influence of emodin on MRP2 function: pravastatin bidirectional transport in the presence of emodin (Ussing chamber)
Format: in vitro ADME
Set-up: intestinal segments including duodenum, jejunum, ileum, and colon from anesthetized rats were immediately removed by surgery; from tissue; host or cells: stripped rat intestine (jejunum and ileum in validation; jejunum for the emodin studies)
Conditions: rat, pH 6.5, with emodin 185 μM on mucosal side, pravastatin 47 μM, rat jejunum, emodin 185 μM on mucosal side; read-out: Papp S-M in the presence of emodin
reportedEndpoint: Papp at 47 μM (×10⁻⁶ cm/s)
API: value field is a number in ×10⁻⁶ cm/s; no unit string.

Query: Find the recorded Papp at 47 μM belonging to `CC[C@H](C)C(=O)O[C@H]1C[C@H](O)C=C2C=C[C@H](C)[C@H](CC[C@@H](O)C[C@@H](O)CC(=O)O)[C@H]21` and report it.
Reply: 70.3

----------
Molecular target: MRP2 (Rattus norvegicus, UniProt Q63120)
Sequence (Q63120 whole entry): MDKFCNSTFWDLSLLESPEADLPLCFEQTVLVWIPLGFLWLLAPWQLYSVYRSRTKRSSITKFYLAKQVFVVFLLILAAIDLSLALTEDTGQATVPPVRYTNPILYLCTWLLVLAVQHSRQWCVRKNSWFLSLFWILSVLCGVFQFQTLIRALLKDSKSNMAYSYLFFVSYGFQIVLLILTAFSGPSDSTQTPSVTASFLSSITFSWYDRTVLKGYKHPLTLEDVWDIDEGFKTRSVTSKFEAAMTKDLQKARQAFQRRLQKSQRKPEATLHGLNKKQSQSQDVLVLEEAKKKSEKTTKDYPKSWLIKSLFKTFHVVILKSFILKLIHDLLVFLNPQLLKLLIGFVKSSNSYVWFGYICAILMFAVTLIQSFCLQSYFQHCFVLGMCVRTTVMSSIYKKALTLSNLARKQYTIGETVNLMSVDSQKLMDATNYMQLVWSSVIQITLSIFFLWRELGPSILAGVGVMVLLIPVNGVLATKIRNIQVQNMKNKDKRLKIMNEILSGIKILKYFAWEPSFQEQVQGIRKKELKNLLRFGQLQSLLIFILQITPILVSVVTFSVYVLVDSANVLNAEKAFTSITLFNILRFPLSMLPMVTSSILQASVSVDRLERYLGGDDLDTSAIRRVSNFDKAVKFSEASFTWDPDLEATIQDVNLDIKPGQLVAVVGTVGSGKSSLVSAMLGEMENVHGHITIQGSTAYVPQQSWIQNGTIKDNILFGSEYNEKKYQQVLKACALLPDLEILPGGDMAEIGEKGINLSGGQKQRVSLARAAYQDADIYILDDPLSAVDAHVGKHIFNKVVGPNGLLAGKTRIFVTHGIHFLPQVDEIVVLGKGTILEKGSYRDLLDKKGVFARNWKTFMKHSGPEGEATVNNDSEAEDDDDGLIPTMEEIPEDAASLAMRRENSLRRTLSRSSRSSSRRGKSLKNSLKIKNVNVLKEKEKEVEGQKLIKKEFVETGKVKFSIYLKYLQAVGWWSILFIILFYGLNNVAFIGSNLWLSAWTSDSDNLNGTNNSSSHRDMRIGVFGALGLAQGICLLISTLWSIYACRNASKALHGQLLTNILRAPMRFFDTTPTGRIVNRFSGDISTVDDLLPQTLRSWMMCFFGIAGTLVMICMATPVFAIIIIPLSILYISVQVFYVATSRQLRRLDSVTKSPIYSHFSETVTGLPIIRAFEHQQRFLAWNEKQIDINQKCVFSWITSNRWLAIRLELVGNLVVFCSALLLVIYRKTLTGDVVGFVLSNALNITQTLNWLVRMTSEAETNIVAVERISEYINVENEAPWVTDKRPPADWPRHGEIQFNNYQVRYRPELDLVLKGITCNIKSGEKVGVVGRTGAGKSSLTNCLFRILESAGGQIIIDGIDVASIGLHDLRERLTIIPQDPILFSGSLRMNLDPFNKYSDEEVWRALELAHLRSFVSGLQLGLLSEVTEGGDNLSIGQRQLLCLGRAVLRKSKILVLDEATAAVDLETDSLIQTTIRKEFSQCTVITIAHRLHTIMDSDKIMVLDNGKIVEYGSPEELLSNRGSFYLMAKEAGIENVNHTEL
Experiment: Influence of emodin on MRP2 function: pravastatin bidirectional transport in the presence of emodin (Ussing chamber)
Format: in vitro ADME
Set-up: intestinal segments including duodenum, jejunum, ileum, and colon from anesthetized rats were immediately removed by surgery; from tissue; host or cells: stripped rat intestine (jejunum and ileum in validation; jejunum for the emodin studies)
Conditions: rat, pH 6.5, pravastatin 47 μM, rat jejunum, without emodin; read-out: Papp M-S, control
reportedEndpoint: Papp at 47 μM (×10⁻⁶ cm/s)
API: value field is a number in ×10⁻⁶ cm/s; no unit string.

Query: Find the recorded Papp at 47 μM belonging to `CC[C@H](C)C(=O)O[C@H]1C[C@H](O)C=C2C=C[C@H](C)[C@H](CC[C@@H](O)C[C@@H](O)CC(=O)O)[C@H]21` and report it.
Reply: 64.5

----------
System: P-gp
Experiment: in vitro
Settings: rat, pH 6.5, Papp S-M, control, rat duodenum, without inhibitor
reportedEndpoint: Papp (×10⁻⁶ cm/s)
API: value field is a number in ×10⁻⁶ cm/s; no unit string.

Query: Find the recorded Papp belonging to `C[C@H]1O[C@@H](O[C@H]2[C@@H](O)C[C@H](O[C@H]3[C@@H](O)C[C@H](O[C@H]4CC[C@@]5(C)[C@H](CC[C@@H]6[C@@H]5C[C@@H](O)[C@]5(C)[C@@H](C7=CC(=O)OC7)CC[C@]65O)C4)O[C@@H]3C)O[C@@H]2C)C[C@H](O)[C@@H]1O` and report it.
Reply: 186

----------
Target: MRP3 (Rattus norvegicus)
Construct: intestinal segments including duodenum, jejunum, ileum, and colon from anesthetized rats were immediately removed by surgery; from tissue; host or cells: stripped rat intestine (jejunum and ileum in validation; jejunum for the emodin studies)
Test: Ussing chamber bidirectional transport, model validation for MRP3 (teniposide substrate, benzbromarone inhibitor)
Assay type: in vitro ADME
Settings: rat, pH 6.5, rat colon, without inhibitor; read-out: Papp M-S, control
reportedEndpoint: Papp (×10⁻⁶ cm/s)
API: value field is a number in ×10⁻⁶ cm/s; no unit string.

Query: Reported Papp for MRP3 (Rattus norvegicus), given COc1cc([C@@H]2c3cc4c(cc3[C@@H](O[C@@H]3O[C@@H]5CO[C@@H](c6cccs6)O[C@H]5[C@H](O)[C@H]3O)[C@H]3COC(=O)[C@H]23)OCO4)cc(OC)c1O [Teniposide] ?
Reply: 16

----------
System: P-gp
Assay: Influence of emodin on P-gp function: digoxin bidirectional transport in the presence of emodin (Ussing chamber)
Assay type: in vitro ADME
Conditions: rat, pH 6.5, with emodin 370 μM on mucosal side, digoxin 25 μM, rat jejunum, emodin 370 μM on mucosal side; read-out: Papp S-M in the presence of emodin
reportedEndpoint: Papp at 25 μM (×10⁻⁶ cm/s)
API: value field is a number in ×10⁻⁶ cm/s; no unit string.

Query: Find the recorded Papp at 25 μM belonging to C[C@H]1O[C@@H](O[C@H]2[C@@H](O)C[C@H](O[C@H]3[C@@H](O)C[C@H](O[C@H]4CC[C@@]5(C)[C@H](CC[C@@H]6[C@@H]5C[C@@H](O)[C@]5(C)[C@@H](C7=CC(=O)OC7)CC[C@]65O)C4)O[C@@H]3C)O[C@@H]2C)C[C@H](O)[C@@H]1O [Digoxin] and report it.
Reply: 461

----------
Biological target: MRP2 (Rattus norvegicus)
Test: Ussing chamber bidirectional transport, model validation for MRP2 (pravastatin substrate, MK571 inhibitor)
Type: in vitro ADME
Parameters: intestinal segments including duodenum, jejunum, ileum, and colon from anesthetized rats were immediately removed by surgery; from tissue; host or cells: stripped rat intestine (jejunum and ileum in validation; jejunum for the emodin studies)
Details: rat, pH 6.5, with MK571 186 μM, mucosal side, rat duodenum, with MK571 186 μM on mucosal side; read-out: Papp S-M, with inhibitor
reportedEndpoint: Papp

Query: Find the recorded Papp belonging to CC[C@H](C)C(=O)O[C@H]1C[C@H](O)C=C2C=C[C@H](C)[C@H](CC[C@@H](O)C[C@@H](O)CC(=O)O)[C@H]21 [Pravastatin] and report it.
Reply: 112 ×10⁻⁶ cm/s

----------
Molecular target: MRP3 (Rattus norvegicus, UniProt O88563)
Construct: intestinal segments including duodenum, jejunum, ileum, and colon from anesthetized rats were immediately removed by surgery; from tissue; host or cells: stripped rat intestine (jejunum and ileum in validation; jejunum for the emodin studies)
Sequence (O88563 whole entry): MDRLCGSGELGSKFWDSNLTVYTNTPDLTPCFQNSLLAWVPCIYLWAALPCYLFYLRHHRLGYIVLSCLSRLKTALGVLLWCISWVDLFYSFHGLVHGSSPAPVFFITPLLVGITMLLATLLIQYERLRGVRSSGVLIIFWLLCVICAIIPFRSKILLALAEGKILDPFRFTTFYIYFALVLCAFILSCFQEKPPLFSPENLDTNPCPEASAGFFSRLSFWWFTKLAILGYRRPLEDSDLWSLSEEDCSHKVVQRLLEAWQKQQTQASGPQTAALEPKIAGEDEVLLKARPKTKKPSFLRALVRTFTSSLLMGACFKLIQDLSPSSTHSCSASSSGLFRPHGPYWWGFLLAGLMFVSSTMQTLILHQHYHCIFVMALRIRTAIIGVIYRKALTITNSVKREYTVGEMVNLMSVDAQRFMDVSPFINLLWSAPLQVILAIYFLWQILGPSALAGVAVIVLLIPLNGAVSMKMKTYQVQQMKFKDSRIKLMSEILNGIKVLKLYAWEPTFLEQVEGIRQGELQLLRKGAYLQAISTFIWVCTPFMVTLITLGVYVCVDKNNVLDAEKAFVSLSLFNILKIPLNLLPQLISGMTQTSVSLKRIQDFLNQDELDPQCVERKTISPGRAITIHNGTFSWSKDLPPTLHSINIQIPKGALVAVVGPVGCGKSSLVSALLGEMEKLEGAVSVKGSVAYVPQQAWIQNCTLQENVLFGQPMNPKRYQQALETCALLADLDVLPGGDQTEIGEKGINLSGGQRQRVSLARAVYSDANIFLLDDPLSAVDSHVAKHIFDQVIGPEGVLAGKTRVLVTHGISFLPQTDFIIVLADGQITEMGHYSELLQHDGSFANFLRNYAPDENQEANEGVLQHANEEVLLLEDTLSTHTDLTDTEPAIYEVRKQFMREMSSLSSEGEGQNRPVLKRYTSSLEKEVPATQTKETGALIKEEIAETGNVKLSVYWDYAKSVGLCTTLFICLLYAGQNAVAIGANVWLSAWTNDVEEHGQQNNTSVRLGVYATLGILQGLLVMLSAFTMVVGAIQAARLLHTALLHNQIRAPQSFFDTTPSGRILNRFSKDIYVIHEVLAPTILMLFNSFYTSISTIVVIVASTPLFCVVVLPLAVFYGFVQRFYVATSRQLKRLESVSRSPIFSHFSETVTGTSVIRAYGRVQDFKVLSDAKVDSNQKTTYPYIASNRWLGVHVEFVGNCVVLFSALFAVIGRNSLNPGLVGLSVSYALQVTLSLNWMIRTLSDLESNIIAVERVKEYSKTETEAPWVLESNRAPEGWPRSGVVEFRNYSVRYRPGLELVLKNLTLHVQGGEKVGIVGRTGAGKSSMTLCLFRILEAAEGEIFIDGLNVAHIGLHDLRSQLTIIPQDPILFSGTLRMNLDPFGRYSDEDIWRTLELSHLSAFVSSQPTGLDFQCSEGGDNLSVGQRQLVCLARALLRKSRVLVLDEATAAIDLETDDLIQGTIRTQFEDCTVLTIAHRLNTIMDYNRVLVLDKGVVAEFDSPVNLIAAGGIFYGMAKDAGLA
Assay: Ussing chamber bidirectional transport, model validation for MRP3 (teniposide substrate, benzbromarone inhibitor)
Type: in vitro ADME
Conditions: rat, pH 6.5, with benzbromarone 470 μM, mucosal side, rat colon, with benzbromarone 470 μM on mucosal side; read-out: Papp M-S, with inhibitor
reportedEndpoint: Papp (×10⁻⁶ cm/s)
API: value field is a number in ×10⁻⁶ cm/s; no unit string.

Query: Find the recorded Papp belonging to COc1cc([C@@H]2c3cc4c(cc3[C@@H](O[C@@H]3O[C@@H]5CO[C@@H](c6cccs6)O[C@H]5[C@H](O)[C@H]3O)[C@H]3COC(=O)[C@H]23)OCO4)cc(OC)c1O [Teniposide] and report it.
Reply: 28.3

----------
Tested on: P-gp
Assay: in vitro
Settings: rat, pH 6.5, with verapamil 220 μM, mucosal side, Papp S-M, with inhibitor, rat duodenum, with verapamil 220 μM on mucosal side
reportedEndpoint: Papp
Respond with a number, then the unit of measure.

Query: Find the recorded Papp belonging to `C[C@H]1O[C@@H](O[C@H]2[C@@H](O)C[C@H](O[C@H]3[C@@H](O)C[C@H](O[C@H]4CC[C@@]5(C)[C@H](CC[C@@H]6[C@@H]5C[C@@H](O)[C@]5(C)[C@@H](C7=CC(=O)OC7)CC[C@]65O)C4)O[C@@H]3C)O[C@@H]2C)C[C@H](O)[C@@H]1O` and report it.
Reply: 79.7 ×10⁻⁶ cm/s

----------
Target: MRP2 (Rattus norvegicus)
Assay: Ussing chamber bidirectional transport, model validation for MRP2 (pravastatin substrate, MK571 inhibitor)
Assay type: in vitro ADME
Design: intestinal segments including duodenum, jejunum, ileum, and colon from anesthetized rats were immediately removed by surgery; from tissue; host or cells: stripped rat intestine (jejunum and ileum in validation; jejunum for the emodin studies)
Conditions: rat, pH 6.5, with MK571 186 μM, mucosal side, rat duodenum, with MK571 186 μM on mucosal side; read-out: Papp M-S, with inhibitor
reportedEndpoint: Papp
Respond with a number, then the unit of measure.

Query: Reported Papp for MRP2 (Rattus norvegicus), given CC[C@H](C)C(=O)O[C@H]1C[C@H](O)C=C2C=C[C@H](C)[C@H](CC[C@@H](O)C[C@@H](O)CC(=O)O)[C@H]21 [Pravastatin] ?
Reply: 77.9 ×10⁻⁶ cm/s
